Where do these numbers come from? They come from the supplement of paper PMC3545927.

In this section we review reported furin cleavage Z-score values for a set of sequences.
- targetDesc: furin, P09958;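 further: purified furin at 1:10 enzyme:substrate in 50 mM HEPES pH 7.5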
- Sequence (P09958 whole entry): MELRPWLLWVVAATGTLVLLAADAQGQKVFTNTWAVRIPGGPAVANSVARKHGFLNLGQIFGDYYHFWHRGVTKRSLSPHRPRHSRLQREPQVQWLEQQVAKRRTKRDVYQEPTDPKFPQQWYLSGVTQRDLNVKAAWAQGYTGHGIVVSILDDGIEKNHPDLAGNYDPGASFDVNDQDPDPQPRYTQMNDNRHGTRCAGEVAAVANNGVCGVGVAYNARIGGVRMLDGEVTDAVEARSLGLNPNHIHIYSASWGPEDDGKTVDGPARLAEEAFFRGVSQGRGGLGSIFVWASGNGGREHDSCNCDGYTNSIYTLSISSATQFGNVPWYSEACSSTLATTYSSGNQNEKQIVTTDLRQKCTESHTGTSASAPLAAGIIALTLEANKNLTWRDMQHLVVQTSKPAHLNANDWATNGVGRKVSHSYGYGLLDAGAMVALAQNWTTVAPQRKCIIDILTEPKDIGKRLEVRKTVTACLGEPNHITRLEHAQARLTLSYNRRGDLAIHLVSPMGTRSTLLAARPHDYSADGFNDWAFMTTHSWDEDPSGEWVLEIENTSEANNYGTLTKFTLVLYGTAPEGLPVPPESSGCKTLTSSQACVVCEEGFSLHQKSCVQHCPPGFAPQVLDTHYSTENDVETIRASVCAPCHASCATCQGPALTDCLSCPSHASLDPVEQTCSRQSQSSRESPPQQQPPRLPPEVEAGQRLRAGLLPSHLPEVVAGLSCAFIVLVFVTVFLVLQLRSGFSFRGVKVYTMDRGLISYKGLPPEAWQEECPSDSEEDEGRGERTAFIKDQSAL
- procedureSummary: furin cleavage Z-score vs untreated control; higher = more cleavage, active = 3.5 or more, inactive = 1 or less, 8 variable residues between constant flanks
- testSettings: 15 min
Some of the results follow. How many sequences the whole screen found active is unknown.
Lab note: record the figure alone, no unit after it.

Reported furin cleavage Z-score for CARFKRLACMAGNASASA [FS-2488] was 1.17

Reported furin cleavage Z-score for CARFERAIGPAGNASASA [FS-2662] was 0.675

Reported furin cleavage Z-score for CALPDRRRRFAGNASASA [FS-1027] was 8.87

Reported furin cleavage Z-score for CAQEKRSVFQAGNASASA [FS-2249] was 1.01
